# assayedTarget: Y1R
# Sequence (P25929 whole entry): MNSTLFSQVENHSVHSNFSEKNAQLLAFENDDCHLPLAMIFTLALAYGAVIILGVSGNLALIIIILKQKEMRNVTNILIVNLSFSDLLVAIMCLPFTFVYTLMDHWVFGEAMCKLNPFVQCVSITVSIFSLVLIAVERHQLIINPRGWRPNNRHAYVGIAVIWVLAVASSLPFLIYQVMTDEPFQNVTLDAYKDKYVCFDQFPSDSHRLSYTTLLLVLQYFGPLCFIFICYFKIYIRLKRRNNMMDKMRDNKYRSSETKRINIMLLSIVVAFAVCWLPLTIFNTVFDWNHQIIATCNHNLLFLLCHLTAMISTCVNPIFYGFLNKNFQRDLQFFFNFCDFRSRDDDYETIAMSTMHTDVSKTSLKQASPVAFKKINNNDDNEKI
# experimentalProtocol: cell-based or functional assay
Starred links: 1 amine or outer side, 2 acyl side, 3 side chain; linkers in the order of their positions; H or OH if unused. Non-standard residues stand in square brackets, D forms with d. Primed or numbered codes have the meaning given here. No end group written: not given here. *: point of attachment. Pqa = 4-oxo-6-(1-piperazinyl)-3(4H)-quinazoline-acetic acid, O=C(Cn1cnc2ccc(N3CCN([*:1])CC3)cc2c1=O)[*:2]; Adamantane1carbonyl = O=C(C12CC3CC(CC(C3)C1)C2)*; PEG30,000 SSA = (PEG-30,000)CH2CH2NHCOCH2CH2CO; PEG30,000 SSA″ = PEG-CH2CH2NHCOCH2CH2CO-; PEG30,000 SPA = (PEG-30,000)CH2CH2CO; NMeR = CN[C@@H](CCCNC(=N)N)C(=O)O

| binder | Y1R EC50 (nM) FLIPR |
| --- | --- |
| IXXRHYLNWVTRQRY (PEG30,000-SSA (PEG-CH2CH2NHCOCH2CH2CO-) on the N-terminal Ile; Nle as second residue; Pqa as third residue; (NMe)Arg as penultimate residue; C-terminal amide (NH2)) [((PEC30,000)CH2Cl2NHCOCH2CH2CO)Ile-Nle-Pqa-Arg-His-Tyr-Leu-Asn-Trp-Val-Thr-Arg-Gln-(NMe)Arg-Tyr-NH2] | > 5000 nM |
| Ac-IK(PEG30,000 SSA″)[Pqa]RHYLNWVTRQ[NMeR]Y-NH2 | > 5000 nM |
| IXXRHYLNWVTRQRY (Nle as second residue; Pqa as third residue; (NMe)Arg as penultimate residue; C-terminal amide (NH2)) [H-Ile-Nle-Pqa-Arg-His-Tyr-Leu-Asn-Trp-Val-Thr-Arg-Gln-(NMe)Arg-Tyr-NH2] | > 5000 nM |
| IK[Pqa]RHYLNWVTRQ[NMeR]Y-NH2 (also: mixture: PEG30,000 SPA on N-terminal Ile or on Lys ε-amino (majority on Lys)) | > 5000 nM |
| H-IK(PEG30,000 SSA)[Pqa]RHYLNWVTRQ[NMeR]Y-NH2 | > 5000 nM |
| H-IK[Pqa]RHYLNWVTRQ[NMeR]Y-NH2 [H-Ile-Lys-Pqa-Arg-His-Tyr-Leu-Asn-Trp-Val-Thr-Arg-Gln-(NMe)Arg-Tyr-NH2] | 298 nM |
| IXXRHYLNWVTRQRY ((PEG-30,000)CH(CH3)CH2CO (PEG30,000 beta-SBA) on the N-terminal Ile; Nle as second residue; Pqa as third residue; (NMe)Arg as penultimate residue; C-terminal amide (NH2)) [((PEG-30,000)CH(CH3)CH2CO)Ile-Nle-Pqa-Arg-His-Tyr-Leu-Asn-Trp-Val-Thr-Arg-Gln-(NMe)Arg-Tyr-NH2] | > 5000 nM |
| Adamantane1carbonyl-IK[Pqa]RHYLNWVTRQ[NMeR]Y-NH2 [Adamantoyl-Ile-Lys-Pqa-Arg-His-Tyr-Leu-Asn-Trp-Val-Thr-Arg-Gln-(NMe)Arg-Tyr-NH2] | > 5000 nM |
| IK[Pqa]RHYLNWVTRQ[NMeR]Y-NH2 (also: mixture: PEG40,000 BTC on N-terminal Ile or on Lys ε-amino) | > 5000 nM |
| Ac-IK(PEG30,000 SPA)[Pqa]RHYLNWVTRQ[NMeR]Y-NH2 [Ac-Ile(PEG-30,000)CH2CH2CO(ε)Lys-Pqa-Arg-His-Tyr-Leu-Asn-Trp-Val-Thr-Arg-Gln-(NMe)Arg-Tyr-NH2] | > 5000 nM |
| IKXRHYLNLVTRQRX (Pqa as third residue; (NMe)Arg as penultimate residue; Cha (Cyclohexyl Alanine) as C-terminal residue; C-terminal amide (NH2)) [H-Ile-Lys-Pqa-Arg-His-Tyr-Leu-Asn-Leu-Val-Thr-Arg-Gln-(NMe)Arg-Cha-NH2] | > 5000 nM |
